Source of measurements: ChEMBL document CHEMBL5370533

# Target desc: Cyclin-dependent kinase 6 (Homo sapiens)
# Sequence (Q00534 whole entry): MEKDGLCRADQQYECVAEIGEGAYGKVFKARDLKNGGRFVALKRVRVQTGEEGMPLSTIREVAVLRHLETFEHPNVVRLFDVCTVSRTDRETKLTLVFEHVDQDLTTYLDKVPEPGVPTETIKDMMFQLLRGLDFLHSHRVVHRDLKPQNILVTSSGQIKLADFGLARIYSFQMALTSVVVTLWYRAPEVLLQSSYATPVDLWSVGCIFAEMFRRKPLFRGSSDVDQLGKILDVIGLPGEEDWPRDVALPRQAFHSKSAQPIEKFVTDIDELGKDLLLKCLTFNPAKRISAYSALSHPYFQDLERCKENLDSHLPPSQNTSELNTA
# Assay info: Inhibition of human CDK6 assessed as enzyme activity at 0.123 uM pretreated for 20 mins followed by [gamma-33P]-ATP addition and measured after 120 mins in presence of 10 uM ATP by radiometric Hot-SpotSM Kinase assay
# Parameters: scale not given: the % may be the effect or the level left
# Measurement conditions: time 140.0 min
Endpoint name: Activity (%)
I only need the number, in %, no unit after it.

Completed entries (count: 2):
                               query_smiles  data_value
0  Cc1cc(Oc2ccccc2)nc(Nc2c[nH]nc2C(=O)Nc2ccc(N3CCNCC3)cc2)n1        91.5
1  Cc1cnc(Nc2c[nH]nc2C(=O)Nc2ccc(N3CCNCC3)cc2)nc1Oc1ccccc1        88.4

Lab note: next compound to report on.
The reported Activity of the compound CN1CCN(Cc2ccc(NC(=O)c3n[nH]cc3Nc3cc(C4CCCC4)ncn3)cc2)CC1 was 88.9

====

# Activity listing for each entry below
# Target desc: Cyclin-dependent kinase 6 (Homo sapiens)
# Assay info: Inhibition of human CDK6 assessed as enzyme activity at 0.123 uM pretreated for 20 mins followed by [gamma-33P]-ATP addition and measured after 120 mins in presence of 10 uM ATP by radiometric Hot-SpotSM Kinase assay
# Design: scale not given: the % may be the effect or the level left
# Measurement conditions: time 140.0 min
I only need the number, in %, no unit after it.

Completed entries (count: 2):
>>> df
                               query_smiles  data_value
0  O=C(Nc1ccc(N2CCNCC2)cc1)c1n[nH]cc1Nc1cc(-c2ccoc2)ncn1        87.5
1  Cc1nc(Nc2c[nH]nc2C(=O)Nc2ccc(N3CCNCC3)cc2)cc(Oc2ccccc2)n1        88.8

Lab note: next compound to report on.
The reported Activity of the compound O=C(Nc1ccc(CN2CCOCC2)cc1)c1n[nH]cc1Nc1cc(C2CCCC2)ncn1 was 92.6
